Target: T1, full length recombinant human 2N4R tau (amino acids 1-441) (human, UniProt P10636 1-758)
T1 construct: Bought (rPeptide); recombinant, non-phosphorylated; also called recombinant tau
T1 sequence (P10636 other isoform, or with tags, fused parts or gaps limits assumed): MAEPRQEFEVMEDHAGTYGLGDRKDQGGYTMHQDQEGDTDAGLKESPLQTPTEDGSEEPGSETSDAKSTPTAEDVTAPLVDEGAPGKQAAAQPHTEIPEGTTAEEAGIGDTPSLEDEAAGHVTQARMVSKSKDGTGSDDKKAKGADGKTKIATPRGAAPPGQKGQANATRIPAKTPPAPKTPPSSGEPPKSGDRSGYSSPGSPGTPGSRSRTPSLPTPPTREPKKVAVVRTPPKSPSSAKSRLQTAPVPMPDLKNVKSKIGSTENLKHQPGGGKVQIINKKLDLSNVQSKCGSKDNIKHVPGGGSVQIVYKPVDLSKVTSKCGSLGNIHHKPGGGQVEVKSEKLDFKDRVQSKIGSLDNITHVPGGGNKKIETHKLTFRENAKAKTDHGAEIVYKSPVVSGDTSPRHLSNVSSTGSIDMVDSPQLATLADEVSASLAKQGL
Assay: SPR Biacore MCK, purified IgG on Protein A, tau analyte
What koff was measured for each of the following?
Numbers only, in s⁻¹.

Binder	Value Measured
Clone 32 (VH5Vκ4), humanised variant of clone #28, human IgG1 (antibody, V domains shown, also called VH5VK4; VH5Vk4) VH: QVQLQESGPGLVKPSETLSLTCTVSGFSLNNYDMSWVRQAPGKGLEWIGTVSTTYRRYYASWAKGRFTISRDNSKNTLDLQMTSLTAEDTATYFCAASGIWGRGTLVTVSS VL: DIQMTQSPSTLSASVGDRVTITCQSSQRVYSNYLAWYQQKPGQPPKRLIFLASTLESGVPSRFSGSGSGTEFTLTISSLQPDDFATYYCAGTYTGSIWAFGGGTKVEIK	0.00239
Clone 27 (VH4Vκ2), humanised variant of clone #28, human IgG1 (antibody, V domains shown, also called VH4VK2; VH4Vk2) VH: QVQLQESGPGLVKPSETLSLTCTVSGFSLNNYDMSWVRQAPGKGLEWIGTVSTTYRRYYASWAKGRFTISKDTSSTTVDLQMTSLTAEDTATYFCAASGIWGRGTLVTVSS VL: AQVLTQSPSTLSASVGDRVTITCQSSQRVYSNYLAWYQQKPGQPPKRLIFLASTLESGVPSRFSGSGSGTEFTLTISSLQPDDFATYYCAGTYTGSIWAFGGGTKVEIK	0.0026

Lab note: next binder to report on.
# query: koff of entry Clone 31 (VH5Vκ2), humanised variant of clone #28, human IgG1 (antibody, V domains shown, also called VH5VK2; VH5Vk2) VH: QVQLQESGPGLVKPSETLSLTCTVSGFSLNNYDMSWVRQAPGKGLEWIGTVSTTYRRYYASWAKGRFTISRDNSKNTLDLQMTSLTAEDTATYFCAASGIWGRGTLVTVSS VL: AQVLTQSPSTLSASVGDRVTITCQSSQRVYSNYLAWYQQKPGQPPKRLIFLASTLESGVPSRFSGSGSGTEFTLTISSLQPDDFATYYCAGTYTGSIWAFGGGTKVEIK
0.00321

FYI, the data here is from patent US20220265819A1.
